List of enzyme activity, Lymphs values.
# System: lymphocytes
# PROTOCOL: peptidase activity in leukemia and non-leukemia patients, lymphocytes (Table 6C)
# Assay type: cell-based, human
# Parameters: unit not given here
# ASSAY_SETUP: P71 ac. pyelonephritis
OBSERVED_PROPERTY: enzyme activity, Lymphs

{"columns": ["MOLECULE", "NUMERIC_VALUE"],
 "data": [
  ["CC(C)[C@H](N)C(=O)N[C@@H](CO)C(=O)Nc1ccc2c(c1)Oc1cc(NC(=O)[C@H](CO)NC(=O)[C@@H](N)C(C)C)ccc1C21OC(=O)c2ccccc21 [VS, (H-L-Val--Ser)2 Rho 110 .2TFA]", 0.08],
  ["NC(=O)CC[C@H](N)C(=O)N[C@@H](CO)C(=O)Nc1ccc2c(c1)Oc1cc(NC(=O)[C@H](CO)NC(=O)[C@@H](N)CCC(N)=O)ccc1C21OC(=O)c2ccccc21 [QS, (H-L-Gln--Ser)2 Rho 110 .2TFA]", 0.05],
  ["CC(C)C[C@H](N)C(=O)NCC(=O)Nc1ccc2c(c1)Oc1cc(NC(=O)CNC(=O)[C@@H](N)CC(C)C)ccc1C21OC(=O)c2ccccc21 [LG]", 0.68]
]}

---

# Tested on: granulocytes
# PROTOCOL: peptidase activity in leukemia and non-leukemia patients, granulocytes (Table 6C)
# Format: cell-based, human
# Parameters: unit not given here
# ASSAY_SETUP: J4 12/2/91 A L
OBSERVED_PROPERTY: enzyme activity, Grans

{"columns": ["COMPOUND", "RESULT"],
 "data": [
  ["C[C@H](N)C(=O)Nc1ccc2c(c1)Oc1cc(NC(=O)[C@H](C)N)ccc1C21OC(=O)c2ccccc21 [ALA, (Ala)2 Rho 110]", 139.53],
  ["NCC(=O)N1CCC[C@H]1C(=O)Nc1ccc2c(c1)Oc1cc(NC(=O)[C@@H]3CCCN3C(=O)CN)ccc1C21OC(=O)c2ccccc21 [GP, (H-Gly--Pro)2 Rho .2TFA]", 11.08],
  ["CC(C)C[C@H](N)C(=O)NCC(=O)Nc1ccc2c(c1)Oc1cc(NC(=O)CNC(=O)[C@@H](N)CC(C)C)ccc1C21OC(=O)c2ccccc21 [LG]", 0.79]
]}

---

# Test system: lymphocytes
# PROTOCOL: aberrant enzyme activities in febrile children, lymphocytes (Table 7)
# Assay type: cell-based, human
# ASSAY_SETUP: P92 Adenitis
Where a name gives a salt, the structure may show the parent alone.
List of aberrant enzyme activity, LYMPHS values.

{"columns": ["MOLECULE", "ASSAY_TARGET", "aberrant enzyme activity, LYMPHS"],
 "data": [
  ["C[C@H](N)C(=O)N[C@@H](C)C(=O)Nc1ccc2c(c1)Oc1cc(NC(=O)[C@H](C)NC(=O)[C@H](C)N)ccc1C21OC(=O)c2ccccc21 [AA-TFA, (H-L-Ala--Ala)2 Rho 110 .2TFA]", "lymphocytes", ".smallcircle."],
  ["CC(C)C[C@H](NC(=O)CN)C(=O)Nc1ccc2c(c1)Oc1cc(NC(=O)[C@H](CC(C)C)NC(=O)CN)ccc1C21OC(=O)c2ccccc21", "lymphocytes", ".smallcircle."],
  ["C[C@H](NC(=O)[C@@H](N)CCCCN)C(=O)Nc1ccc2c(c1)Oc1cc(NC(=O)[C@H](C)NC(=O)[C@@H](N)CCCCN)ccc1C21OC(=O)c2ccccc21 [KA, (Lys-Ala)2 Rho 110]", "lymphocytes", ".smallcircle."]
]}

---

List of enzyme activity, Grans values.
# Test system: granulocytes
# PROTOCOL: peptidase activity in leukemia and non-leukemia patients, granulocytes (Table 6C)
# Type: cell-based, human
# Design: unit not given here
# ASSAY_SETUP: N202 normal

{"columns": ["COMPOUND", "enzyme activity, Grans"],
 "data": [
  ["NC(=O)CC[C@H](N)C(=O)N[C@@H](CO)C(=O)Nc1ccc2c(c1)Oc1cc(NC(=O)[C@H](CO)NC(=O)[C@@H](N)CCC(N)=O)ccc1C21OC(=O)c2ccccc21 [QS, (H-L-Gln--Ser)2 Rho 110 .2TFA]", 0.08],
  ["C[C@@H](O)[C@H](N)C(=O)N1CCC[C@H]1C(=O)Nc1ccc2c(c1)Oc1cc(NC(=O)[C@@H]3CCCN3C(=O)[C@@H](N)[C@@H](C)O)ccc1C21OC(=O)c2ccccc21 [TP, (H-L-Thr--Pro)2 Rho 110 .2TFA]", 4.44],
  ["CC(C)C[C@H](N)C(=O)NCC(=O)Nc1ccc2c(c1)Oc1cc(NC(=O)CNC(=O)[C@@H](N)CC(C)C)ccc1C21OC(=O)c2ccccc21 [LG]", 2.70],
  ["CC(C)[C@H](N)C(=O)N[C@@H](CO)C(=O)Nc1ccc2c(c1)Oc1cc(NC(=O)[C@H](CO)NC(=O)[C@@H](N)C(C)C)ccc1C21OC(=O)c2ccccc21 [VS, (H-L-Val--Ser)2 Rho 110 .2TFA]", 0.24],
  ["NCC(=O)N1CCC[C@H]1C(=O)Nc1ccc2c(c1)Oc1cc(NC(=O)[C@@H]3CCCN3C(=O)CN)ccc1C21OC(=O)c2ccccc21 [GP, (H-Gly--Pro)2 Rho .2TFA]", 14.44],
  ["C[C@H](N)C(=O)Nc1ccc2c(c1)Oc1cc(NC(=O)[C@H](C)N)ccc1C21OC(=O)c2ccccc21 [ALA, (Ala)2 Rho 110]", 201.17]
]}

---

# System: lymphocytes
# PROTOCOL: peptidase activity in leukemia and non-leukemia patients, lymphocytes (Table 6C)
# Type: cell-based, human
# Design: unit not given here
# ASSAY_SETUP: N202 normal
Rule for this label: Fulfilled means enzyme activity, Lymphs is less than 0.7; Not fulfilled means enzyme activity, Lymphs is at least 0.7.

{"columns": ["COMPOUND", "QUALITATIVE_LABEL"],
 "data": [
  ["C[C@H](N)C(=O)Nc1ccc2c(c1)Oc1cc(NC(=O)[C@H](C)N)ccc1C21OC(=O)c2ccccc21", "Not fulfilled"],
  ["C[C@@H](O)[C@H](N)C(=O)N1CCC[C@H]1C(=O)Nc1ccc2c(c1)Oc1cc(NC(=O)[C@@H]3CCCN3C(=O)[C@@H](N)[C@@H](C)O)ccc1C21OC(=O)c2ccccc21 [TP, (H-L-Thr--Pro)2 Rho 110 .2TFA]", "Not fulfilled"],
  ["NCC(=O)N1CCC[C@H]1C(=O)Nc1ccc2c(c1)Oc1cc(NC(=O)[C@@H]3CCCN3C(=O)CN)ccc1C21OC(=O)c2ccccc21 [GP, (H-Gly--Pro)2 Rho .2TFA]", "Not fulfilled"],
  ["O=C1OC2(c3ccc(NC(=O)[C@@H]4CCCN4)cc3Oc3cc(NC(=O)[C@@H]4CCCN4)ccc32)c2ccccc21 [PRO, (H-L-Pro)2 --Rho 110 .2TFA]", "Not fulfilled"],
  ["CC(C)[C@H](N)C(=O)N[C@@H](CO)C(=O)Nc1ccc2c(c1)Oc1cc(NC(=O)[C@H](CO)NC(=O)[C@@H](N)C(C)C)ccc1C21OC(=O)c2ccccc21 [VS, (H-L-Val--Ser)2 Rho 110 .2TFA]", "Fulfilled"],
  ["NC(=O)CC[C@H](N)C(=O)N[C@@H](CO)C(=O)Nc1ccc2c(c1)Oc1cc(NC(=O)[C@H](CO)NC(=O)[C@@H](N)CCC(N)=O)ccc1C21OC(=O)c2ccccc21 [QS, (H-L-Gln--Ser)2 Rho 110 .2TFA]", "Fulfilled"]
]}

---

List of enzyme activity, Lymphs values.
# Tested on: lymphocytes
# PROTOCOL: peptidase activity in leukemia and non-leukemia patients, lymphocytes (Table 6C)
# Assay type: cell-based, human
# Design: unit not given here
# ASSAY_SETUP: N192 normal

{"columns": ["COMPOUND", "enzyme activity, Lymphs"],
 "data": [
  ["NCCCC[C@H](N)C(=O)Nc1ccc2c(c1)Oc1cc(NC(=O)[C@@H](N)CCCCN)ccc1C21OC(=O)c2ccccc21 [LYS, (H-L-Lys)2 Rho 110 .4TFA]", 0.56],
  ["C[C@@H](O)[C@H](N)C(=O)N1CCC[C@H]1C(=O)Nc1ccc2c(c1)Oc1cc(NC(=O)[C@@H]3CCCN3C(=O)[C@@H](N)[C@@H](C)O)ccc1C21OC(=O)c2ccccc21 [TP, (H-L-Thr--Pro)2 Rho 110 .2TFA]", 2.12],
  ["CC(C)[C@H](N)C(=O)N[C@@H](CO)C(=O)Nc1ccc2c(c1)Oc1cc(NC(=O)[C@H](CO)NC(=O)[C@@H](N)C(C)C)ccc1C21OC(=O)c2ccccc21 [VS, (H-L-Val--Ser)2 Rho 110 .2TFA]", 0.08],
  ["NC(=O)CC[C@H](N)C(=O)N[C@@H](CO)C(=O)Nc1ccc2c(c1)Oc1cc(NC(=O)[C@H](CO)NC(=O)[C@@H](N)CCC(N)=O)ccc1C21OC(=O)c2ccccc21 [QS, (H-L-Gln--Ser)2 Rho 110 .2TFA]", 0.03],
  ["NCC(=O)N1CCC[C@H]1C(=O)Nc1ccc2c(c1)Oc1cc(NC(=O)[C@@H]3CCCN3C(=O)CN)ccc1C21OC(=O)c2ccccc21 [GP, (H-Gly--Pro)2 Rho .2TFA]", 3.00],
  ["C[C@H](N)C(=O)Nc1ccc2c(c1)Oc1cc(NC(=O)[C@H](C)N)ccc1C21OC(=O)c2ccccc21", 103.31]
]}
